target: T1, human CD3 on CD3+ Jurkat cells (human, UniProt P07766 23-207)
T1 construct: whole, on cells; Native CD3 complex on cells; the other CD3 chains are not specified for this assay; also called Human CD3+ Jurkat
T1 sequence (P07766 23-207): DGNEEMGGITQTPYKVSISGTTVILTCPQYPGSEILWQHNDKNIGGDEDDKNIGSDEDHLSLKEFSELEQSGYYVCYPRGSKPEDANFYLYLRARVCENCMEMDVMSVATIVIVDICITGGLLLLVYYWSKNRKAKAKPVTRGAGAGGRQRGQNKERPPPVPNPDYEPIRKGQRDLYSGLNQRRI
method.notes: flow cytometry on CD3+ Jurkat cells, ratio of MFI at pH 6.0 to pH 7.4
recorded.metric: MFI pH 6.0/MFI pH 7.4
Form field (numeric): enter value without unit.

Example cases with answers are listed next.
INSERT INTO assay_data (binder, test_result) VALUES
  ('SAD10320_P02_F05 (ADI-48651) (antibody, V domains shown, IgG; also called Ab79) VH: QVQLVQSGAEVKKPGASVKVSCKASGFNIKDYYMHWVRQAPGQRLEWMGWIDLENANTIYDAKFQGRVTITRDTSASTAYMELSSLRSEDTAVYYCARDAYGRYHYDVWGQGTLVTVSS VL: DIVMTQSPDSLAVSLGERATINCKSSQSLLNARTGKNYLAWYQQKPGQPPKLLIYWASTRESGVPDRFSGSGSGTDFTLTISSLQAEDVAVYYCKQSYRHRTFGGGTKVEIK', 1.4),
  ('SAD10318_P03_C09 (ADI-48609) (antibody, V domains shown, IgG; also called Ab205) VH: QVQLVQSGAEVKKPGASVKVSCKASGFNIKDYYMHWVRQAPGQRLEWMGWIDLENANTIYDAKFQGRVTITRDTSASTAYMELSSLRSEDTAVYYCARDAYHRYFYDHWGQGTLVTVSS VL: DIVMTQSPDSLAVSLGERATINCKSSQSLLNAHTGKNHLAWYQQKPGQPPKLLIYWASTRESGVPDRFSGSGSGTDFTLTISSLQAEDVAVYYCKQSYHHRTFGGGTKVEIK', 9.3);

Now consider a different binder.
Entry under review: SAD10318_P03_F07 (ADI-48602) (antibody, V domains shown, IgG; also called Ab192) VH: QVQLVQSGAEVKKPGASVKVSCKASGFNIKDYYMHWVRQAPGQRLEWMGWIDLENANTIYDAKFQGRVTITRDTSASTAYMELSSLRSEDTAVYYCARDAHGRYHYDVWGQGTLVTVSS VL: DIVMTQSPDCLAVSLGERATINCKSSQSLLNARTGHNYLAWYQQKPGQPPKLLIYWASTRESGVPDRFSGSGSGTDFTLTISSLQAEDVAVYYCKQSHSHRTFGGGTKVEIK . Reported MFI pH 6.0/MFI pH 7.4?
5.9
